Tested on: microbiota present in the faecal samples
experiment: Faecal fermentation, distribution of oligosaccharides (HPAEC-PAD peak areas)
measurement.context: Comp. Ex. 1 sample, 48 h, Donor A
measured.quantity: Peak areas

1) OC[C@H]1O[C@@H](OC[C@H]2OC(O)[C@H](O)[C@@H](O)[C@@H]2O)[C@H](O)[C@@H](O)[C@H]1O (stereo partly drawn) :: 0.0
2) OC[C@H]1O[C@@H](O[C@H]2[C@H](O)[C@@H](O)C(O)O[C@@H]2CO)[C@H](O)[C@@H](O)[C@H]1O (stereo partly drawn) :: 0.3
3) OC[C@H]1O[C@@H](O[C@H]2[C@@H](O)[C@@H](CO)O[C@@H](O[C@H]3C(O)O[C@H](CO)[C@@H](O)[C@@H]3O)[C@@H]2O)[C@H](O)[C@@H](O)[C@H]1O (stereo partly drawn) :: 0.0
